Entry source: the supplement of paper PMC4862054

Test system: MDA-MB-468
RUN DESCRIPTION: normalised response (% of control), CellTiter-Glo; higher = more viable cells (100 = DMSO, 0 = benzethonium chloride kill control)
MEASUREMENT PARAMETERS: incubation time: 72 h
Reported normalised response values for the following molecules.

{"columns": ["MOLECULE", "normalised response [%]"],
 "data": [
  ["Oc1nc(-c2ccc(C(F)(F)F)cc2)nc2c1CSCC2 [XAV-939] (1000 nM)", 82],
  ["CCC1(c2ccc(N)cc2)CCC(=O)NC1=O (stereo unspecified) [Aminoglutethimide] (10 nM)", 101],
  ["CCCCCCCCCCCCCCCCCCOP(=O)([O-])OC1CC[N+](C)(C)CC1 [Perifosine] (0.25 nM)", 99],
  ["Cc1ccc(-n2nc(C(C)(C)C)cc2NC(=O)Nc2ccc(OCCN3CCOCC3)c3ccccc23)cc1 [Doramapimod] (1 nM)", 95],
  ["Cn1c(Nc2ccc(C(F)(F)F)cc2)nc2cc(Oc3ccnc(-c4ncc(C(F)(F)F)[nH]4)c3)ccc21 [RAF265] (0.1 nM)", 102],
  ["O=C1CCC(N2C(=O)c3ccccc3C2=O)C(=O)N1 (stereo unspecified) [Thalidomide] (1000 nM)", 106],
  ["CS(=O)(=O)c1ccc(C2=C(c3ccccc3)C(=O)OC2)cc1 [Rofecoxib] (10 nM)", 104],
  ["O=C(O)c1ccc(-c2c[nH]c3ncc(-c4ccccc4)cc23)cc1C1CCCC1 (10 nM)", 96],
  ["O=C1CCC(N2C(=O)c3ccccc3C2=O)C(=O)N1 (stereo unspecified) [Thalidomide] (1 nM)", 98.5],
  ["COc1cc2ncnc(Nc3ccc(F)c(Cl)c3)c2cc1NC(=O)/C=C/CN1CCCCC1 [Dacomitinib] (1 nM)", 103],
  ["CCCCCCCCCCCCCCCCCCOP(=O)([O-])OC1CC[N+](C)(C)CC1 [Perifosine] (2.5 nM)", 97.4],
  ["CN(N=O)C(=O)N[C@@H](C=O)[C@@H](O)[C@H](O)[C@H](O)CO [Streptozocin] (1 nM)", 97.5],
  ["Cc1ccc(C(=O)Nc2ccc(CN3CCN(C)CC3)c(C(F)(F)F)c2)cc1C#Cc1cnc2cccnn12 [Ponatinib] (1 nM)", 107],
  ["CC(C)Cn1cnc2c(N)nc3ccccc3c21 [Imiquimod] (250 nM)", 97],
  ["CCC1(c2ccc(N)cc2)CCC(=O)NC1=O (stereo unspecified) [Aminoglutethimide] (1 nM)", 104],
  ["COc1cc([C@@H]2c3cc4c(cc3[C@@H](O[C@@H]3O[C@@H]5CO[C@@H](C)O[C@H]5[C@H](O)[C@H]3O)[C@H]3COC(=O)[C@H]23)OCO4)cc(OC)c1O [Etoposide] (10 nM)", 98.6]
]}
